Consider the following binders; for each one, report its OD (PE binding ELISA).
# Tested target: T1, human IL-2Rγ (common cytokine receptor γ-chain) (human, UniProt P31785 23-262, limits assumed)
# T1 construct: Recombinant protein coated on the plate or immobilised on a CM5 chip; also called hu IL-2R; CD132
# T1 sequence: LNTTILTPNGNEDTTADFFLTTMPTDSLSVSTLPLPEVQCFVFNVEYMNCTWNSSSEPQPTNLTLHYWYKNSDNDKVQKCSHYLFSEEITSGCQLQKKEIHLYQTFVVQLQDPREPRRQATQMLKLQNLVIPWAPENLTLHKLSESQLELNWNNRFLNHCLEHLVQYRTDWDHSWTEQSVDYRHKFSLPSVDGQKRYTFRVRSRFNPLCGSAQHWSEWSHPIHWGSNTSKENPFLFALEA
# Assay overview: PE binding ELISA, periplasmic extract on coated protein
One number for each entry, in OD450 nm.

Binder: FJ1427_P035MP04C11 (VHH, VHH in periplasmic extract; also called clone nr) VHH: QVQLVESGGGLVQHGGSLRLSCAASGPTFSRVAVGWFRQVPGKEREFVAVVNRPGSMTKYADSVKGRFNISRDTAKNTVYLQMNSLKPEDTAVYYCAADSVPYGRPYYFTTSAGDYDYWGQGTQVTVSS
OD (PE binding ELISA), OD450 nm: 0.912

# batch: return OD (PE binding ELISA) for each of the 6 binders below
1. 35-MP07G01 (VHH, VHH in periplasmic extract; also called FJ1427_P035MP07G01; clone nr) VHH: QVQLQESGGGLVQGGGSLRLSCAASGGIFSSYAMGWFRQAPGKEREFVAAISRSGRSTNYADSVKGRFTISRDNAKSTVYLQMNSLKPEETAVYYCAAGRYYNSAYDPSPGDFGSWGHGTQVTVSS
2. FJ1427_P035MP04H01 (VHH, VHH in periplasmic extract; also called clone nr) VHH: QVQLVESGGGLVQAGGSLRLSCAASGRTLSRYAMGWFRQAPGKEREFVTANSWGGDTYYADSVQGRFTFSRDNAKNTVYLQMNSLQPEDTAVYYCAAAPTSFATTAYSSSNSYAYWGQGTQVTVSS
3. FJ1427_P035MP04D09 (VHH, VHH in periplasmic extract; also called clone nr) VHH: QVQLVESGGGWVQVGESLRLSCAPSGRTFVRGIMGWFRQAPGKEREFVARIILNSNSTRYIDSVKGRFTISRDSAKNTMYLQMNSLRPEDTAVYYCAARDRYGSGNSLSPSAYDYWGQGTQVTVSS
4. FJ1427_P035MP04A10 (VHH, VHH in periplasmic extract; also called clone nr) VHH: EVQLVESGGGWVQVGESLRLSCAPSGRTFVSGIMGWFRQAPGKEREFVARIILNNNSTRYTDSVKGRFTISRDSAKNTMYLQMNTLRPEDTAVYYCAARDRYGSGNSLSPSAYDYWGQGTQVTVSS
5. FJ1427_P035MP04H08 (VHH, VHH in periplasmic extract; also called clone nr) VHH: EVQLVESGGGLVQAGESLRLSCAASGPTASRVAVAWFRQVPGKEREFVAVVNRPGTMTKYADSVKGRFTISRDSAKNTVYLQMNSLKPEDTAVYYCAADSVPYGRPYYFQTSAGNYDYWGQGTQVTVSS
6. FJ1427_P035MP04E01 (VHH, VHH in periplasmic extract; also called clone nr) VHH: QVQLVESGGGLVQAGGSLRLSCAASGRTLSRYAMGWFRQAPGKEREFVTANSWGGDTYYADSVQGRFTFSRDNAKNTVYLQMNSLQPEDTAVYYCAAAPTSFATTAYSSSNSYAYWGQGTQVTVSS

**Result**
0.134
1.67
1.93
1.85
1.3
1.08

**Query** State its OD (PE binding ELISA) for this binder: FJ1427_P035MP04F10 (VHH, VHH in periplasmic extract; also called clone nr) VHH: QLQLVESGGGWVQVGESLRLSCVPSGRTFVSGIMGWFRQAPGKEREFVARIISNNNSTRYTDSVKGRFTISRDSAKNTMYLQMNTLRPEDTAVYYCAARDRYGSGNSLSPSAYDYWGQGTQVTVSS
**Result** 0.751
